- MEASURED TARGET: P2Y purinoceptor 1 (Homo sapiens, UniProt P47900)
- Sequence (P47900 whole entry): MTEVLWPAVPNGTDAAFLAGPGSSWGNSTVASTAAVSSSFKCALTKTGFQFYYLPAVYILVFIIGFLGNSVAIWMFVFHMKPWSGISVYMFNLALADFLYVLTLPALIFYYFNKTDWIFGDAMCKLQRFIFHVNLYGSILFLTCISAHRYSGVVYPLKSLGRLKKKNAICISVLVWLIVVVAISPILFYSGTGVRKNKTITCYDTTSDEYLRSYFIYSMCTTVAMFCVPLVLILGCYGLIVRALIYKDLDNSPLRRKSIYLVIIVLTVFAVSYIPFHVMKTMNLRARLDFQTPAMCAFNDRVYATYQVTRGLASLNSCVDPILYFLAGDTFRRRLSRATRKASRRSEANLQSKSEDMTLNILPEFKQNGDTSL
- ASSAY REMARKS: Agonist activity at human recombinant P2Y1 receptor expressed in human 1321 cells at 100 uM by calcium mobilization assay
- Format: functional, cell-based
The source made the active and inactive calls. The rule behind the calls is not given here.
ENDPOINT: Activity

COMPOUND	TEST VALUE
Nc1ncnc2c1ncn2[C@@H]1O[C@H](COP(=O)(O)O)[C@H]2O[C@@H](c3ccccc3)O[C@H]21	inactive
O=c1ccn([C@@H]2O[C@H](COP(=O)(O)OP(=O)(O)OP(=O)(O)OP(=O)(O)OC[C@@H]3O[C@H](n4ccc(=O)[nH]c4=O)[C@@H](O)[C@H]3O)[C@@H]3OC(Cc4ccccc4)O[C@H]32)c(=O)[nH]1 (stereo partly drawn)	inactive
O=C(Nc1ccccc1)Nc1ncnc2c1ncn2[C@@H]1O[C@H](COP(=O)(O)OP(=O)(O)O)[C@H]2O[C@@H](Cc3ccccc3)O[C@H]21	> 5%
